Attribution: ChEMBL document CHEMBL4219205

- assay-target: Rhodopsin kinase GRK1 (Homo sapiens)
- Sequence (Q15835 whole entry): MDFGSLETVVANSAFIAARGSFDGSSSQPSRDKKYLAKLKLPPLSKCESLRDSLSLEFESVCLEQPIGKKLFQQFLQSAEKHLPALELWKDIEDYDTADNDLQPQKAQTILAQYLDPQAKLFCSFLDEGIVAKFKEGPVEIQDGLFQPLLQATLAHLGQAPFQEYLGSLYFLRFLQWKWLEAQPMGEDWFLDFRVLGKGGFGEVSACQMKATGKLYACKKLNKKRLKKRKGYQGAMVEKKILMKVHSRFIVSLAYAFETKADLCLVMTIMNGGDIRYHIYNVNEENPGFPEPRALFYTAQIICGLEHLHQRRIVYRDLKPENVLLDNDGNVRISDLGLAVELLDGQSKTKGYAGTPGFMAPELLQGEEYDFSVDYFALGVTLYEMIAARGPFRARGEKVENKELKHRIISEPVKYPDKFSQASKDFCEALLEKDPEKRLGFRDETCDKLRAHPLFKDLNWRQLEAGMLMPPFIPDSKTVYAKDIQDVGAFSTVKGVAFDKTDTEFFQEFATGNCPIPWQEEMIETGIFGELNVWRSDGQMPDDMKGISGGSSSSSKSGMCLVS
pIC50: −log10 of the molar value.
// reported pIC50 per item

{"compound": "CC1=C(C(=O)Nc2ccc3[nH]ncc3c2)C(c2ccc(F)c(CC(=O)N(CCCO)CCCO)c2)NC(=O)N1 (centres undefined)", "relation-qualifier": "<", "pIC50": 4.00}
{"compound": "CC1=C(C(=O)Nc2ccc3[nH]ncc3c2)C(c2ccc(F)c(C(=O)NCc3cnc4c(c3)CCC4)c2)NC(=O)N1 (centres undefined)", "relation-qualifier": "<", "pIC50": 4.00}
{"compound": "COc1ccccc1C(C)NC(=O)c1cc(C2NC(=O)NC(C)=C2C(=O)Nc2ccc3[nH]ncc3c2)ccc1F (centres undefined)", "relation-qualifier": "=", "pIC50": 4.80}
{"compound": "CC1=C(C(=O)Nc2ccc3[nH]ncc3c2)C(c2ccc(F)c(C(=O)NCc3cn4ccccc4n3)c2)NC(=O)N1 (centres undefined)", "relation-qualifier": "=", "pIC50": 4.77}

###

# IC50 values compiled below
- assay-target: G protein-coupled receptor kinase 5 (Homo sapiens)
- Sequence (P34947 whole entry): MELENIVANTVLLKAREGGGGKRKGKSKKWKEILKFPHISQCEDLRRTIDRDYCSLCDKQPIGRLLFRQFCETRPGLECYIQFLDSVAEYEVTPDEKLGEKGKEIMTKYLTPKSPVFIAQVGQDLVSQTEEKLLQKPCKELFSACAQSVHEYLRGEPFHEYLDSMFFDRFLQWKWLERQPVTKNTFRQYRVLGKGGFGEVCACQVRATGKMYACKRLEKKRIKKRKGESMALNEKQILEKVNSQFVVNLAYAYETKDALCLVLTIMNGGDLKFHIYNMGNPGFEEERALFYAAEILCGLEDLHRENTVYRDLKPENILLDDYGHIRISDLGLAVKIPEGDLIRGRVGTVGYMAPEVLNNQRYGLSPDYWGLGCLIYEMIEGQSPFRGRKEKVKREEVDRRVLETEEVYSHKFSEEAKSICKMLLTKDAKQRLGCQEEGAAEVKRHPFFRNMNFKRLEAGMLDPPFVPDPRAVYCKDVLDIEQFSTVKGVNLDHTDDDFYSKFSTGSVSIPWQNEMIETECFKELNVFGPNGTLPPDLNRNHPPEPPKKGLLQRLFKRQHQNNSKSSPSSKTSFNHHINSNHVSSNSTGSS
test-readout: IC50

{"molecule": "CC1=C(C(=O)Nc2ccc3[nH]ncc3c2)C(c2ccc(F)c(C(=O)NCc3cnc4c(c3)CCC4)c2)NC(=O)N1 (stereo not drawn)", "assay-target": "G protein-coupled receptor kinase 5 (Homo sapiens)", "test-readout": "IC50", "endpoint-value": "9.5 µM"}
{"molecule": "COCCCC1CCCCN1C(=O)c1cc(C2NC(=O)NC(C)=C2C(=O)Nc2ccc3[nH]ncc3c2)ccc1F (stereo not drawn)", "assay-target": "G protein-coupled receptor kinase 5 (Homo sapiens)", "test-readout": "IC50", "endpoint-value": "> 100 µM"}
{"molecule": "CC1=C(C(=O)Nc2ccc3[nH]ncc3c2)C(c2ccc(F)c(CCC(=O)N(CC(C)C)C(C)C)c2)NC(=O)N1 (stereo not drawn)", "assay-target": "G protein-coupled receptor kinase 5 (Homo sapiens)", "test-readout": "IC50", "endpoint-value": "> 100 µM"}
{"molecule": "CC1=C(C(=O)Nc2ccc3[nH]ncc3c2)C(c2ccc(F)c(C(=O)N(C)CC3CCCCO3)c2)NC(=O)N1 (stereo not drawn)", "assay-target": "G protein-coupled receptor kinase 5 (Homo sapiens)", "test-readout": "IC50", "endpoint-value": "> 100 µM"}
{"molecule": "CC1=C(C(=O)Nc2ccc3[nH]ncc3c2)C(c2ccc(F)c(C(=O)NC(C)CCCC(C)C)c2)NC(=O)N1 (stereo not drawn)", "assay-target": "G protein-coupled receptor kinase 5 (Homo sapiens)", "test-readout": "IC50", "endpoint-value": "> 100 µM"}
{"molecule": "CC1=C(C(=O)Nc2ccc3[nH]ncc3c2)C(c2ccc(F)c(CCC(=O)NCCc3ccccc3)c2)NC(=O)N1 (stereo not drawn)", "assay-target": "G protein-coupled receptor kinase 5 (Homo sapiens)", "test-readout": "IC50", "endpoint-value": "> 100 µM"}
{"molecule": "C#CCN(CC(C)C)C(=O)Cc1cc(C2NC(=O)NC(C)=C2C(=O)Nc2ccc3[nH]ncc3c2)ccc1F (stereo not drawn)", "assay-target": "G protein-coupled receptor kinase 5 (Homo sapiens)", "test-readout": "IC50", "endpoint-value": "13 µM"}
{"molecule": "CC1=C(C(=O)Nc2ccc3[nH]ncc3c2)C(c2ccc(F)c(C(=O)NCc3cn4ccccc4n3)c2)NC(=O)N1 (stereo not drawn)", "assay-target": "G protein-coupled receptor kinase 5 (Homo sapiens)", "test-readout": "IC50", "endpoint-value": "1.9 µM"}
